System: OVCAR-4 ovarian
assay-summary: NCI-60 one-dose screen, 48 h
run-parameters: 10 µM unless noted
The panel holds about 83,000 compounds, 20% with a hit somewhere; the sample as a whole holds those more often. Activity calls are given as the source filed them. How the source made its calls: active means growth percent below 10; inactive means the rest.
# output must be one of 1.0 for active, 0.0 for inactive

[
  {
    "compound": "O=C(Nc1cccc(C(F)(F)F)c1)N1CCN(c2cc(-c3cn(-c4ccccc4)nc3-c3cccc(O)c3)ccn2)CC1",
    "assayed-target": "OVCAR-4 ovarian",
    "class": 0.0
  },
  {
    "compound": "Cc1ccc(C)c(NC2=C(Cl)C(=O)c3nc(C)ccc3C2=O)c1",
    "assayed-target": "OVCAR-4 ovarian",
    "class": 1.0
  },
  {
    "compound": "Cc1ccc(N2CCN(C3=C(Cl)C(=O)c4ncccc4C3=O)CC2)cc1",
    "assayed-target": "OVCAR-4 ovarian",
    "class": 0.0
  }
]

Next up:
Could you kindly confirm the outcome this assay logged for `Brc1cc(-c2cc(-c3ccc4c(c3)OC=CO4)[nH]n2)cs1` ?
0.0

###

System: UACC-257 melanoma
assay-summary: NCI-60 one-dose screen, 48 h (100 = growth as untreated, 0 = no growth, -100 = all killed)
run-parameters: 10 µM unless noted
Compounds without any hit were thinned out: in the full panel of roughly 83,000, 20% have a hit.
Quick reference: growth of the listed items.
Write down the numeric answer in % and omit the unit.

[
  {
    "molecule": "C#C[C@]1(O)CC[C@H]2[C@@H]3CC=C4c5sc(Nc6cc(Cl)ccc6OC)nc5CC[C@]4(C)[C@H]3CC[C@@]21C",
    "reported-endpoint": "growth",
    "value-units": "%",
    "test-result": -16.3
  },
  {
    "molecule": "CC(Nc1ncnc2ccc(-c3cnc4cnccn34)cc12)c1ccccc1 (stereo not given)",
    "reported-endpoint": "growth",
    "value-units": "%",
    "test-result": 75.4
  },
  {
    "molecule": "N#C/C(=C\\c1cccc2c1OCO2)C(=O)Nc1sc2c(c1C#N)CCCC2",
    "reported-endpoint": "growth",
    "value-units": "%",
    "test-result": 110
  },
  {
    "molecule": "NCCNC(=O)c1cccc(COc2ccccc2NC(=O)c2cc(Br)c(Br)[nH]2)c1",
    "reported-endpoint": "growth",
    "value-units": "%",
    "test-result": 116
  },
  {
    "molecule": "CCCCSC1=C(Cl)CN(c2ccc(Cl)cc2)C1=O",
    "reported-endpoint": "growth",
    "value-units": "%",
    "test-result": 107
  }
]

Item: `COc1cc(-c2nc(-c3ccccc3)[nH]c2-c2ccnc(NCCCNS(=O)(=O)c3ccc(C)cc3)n2)ccc1F` | System: UACC-257 melanoma | growth: 99.7

growth on UACC-257 melanoma for `NNc1nnc2nc(Nc3ccccc3)nc(Nc3ccc(S(N)(=O)=O)cc3)n12` is 106

GET /values?item= `Fc1ccc2nc(-c3cnn4cccnc34)sc2c1` &system= UACC-257 melanoma returns growth: 100

Field growth (system: UACC-257 melanoma) for entry `Clc1cccc(/C=N/Nc2nc(N/N=C/c3cccc(Cl)c3)nc(N3CCOCC3)n2)c1` = 39.1

Fill in: UACC-257 melanoma growth for `O=C1Nc2ccccc2/C1=N\c1nnc(-c2ccccc2)o1` = 100

###

Tested on: SN12C renal
assay-summary: NCI-60 one-dose screen, 48 h
run-parameters: 10 µM unless noted
This is part of a sample that, as a whole, favours compounds with a hit. Of some 83,000 tested, about 20% had one in any assay. Calls of active or inactive are those of the source. Rule for the calls: active = growth percent below 10; inactive = the rest.
API: response.call in YES for active, NO for inactive

These recorded examples may help you get a feel for the data.
[
  {
    "compound": "C=C(C)[C@@H]1CC[C@]2(C(=O)NC3CCCCC3)CC[C@]3(C)[C@H](CC[C@@H]4[C@@]5(C)CC[C@H](N)C(C)(C)[C@@H]5CC[C@]43C)[C@@H]12",
    "class": "NO"
  },
  {
    "compound": "Nc1cc(C(=O)N/N=C\\c2ccc(OC(F)F)c(OC3CCCC3)c2)nn1CC(O)c1ccccc1 (stereo unspecified)",
    "class": "NO"
  }
]

For `CCOc1cccc(/C(N)=N/C(N)=N/c2nc3ccccc3s2)c1` , what call appears in the results of this test?
NO

Just curious, what result did `O=C(CCCCCCNC(=O)c1csc(Br)n1)NO` get here?
NO

Hi, do you know how `COc1ccc2[nH]cc(/C=N/Nc3ccnc4cc(Cl)ccc34)c2c1` came out in this test?
YES

###

Test system: MCF7 breast
assay-summary: NCI-60 one-dose screen, 48 h (100 = growth as untreated, 0 = no growth, -100 = all killed)
run-parameters: 10 µM unless noted
Compounds without any hit were thinned out: in the full panel of roughly 83,000, 20% have a hit.
So basically, if growth comes in under 70% it's t, and if it's 70% or more it's f.

Below are worked cases with known answers.
[
  {
    "smi": "Clc1ccc(CSc2nnc(-c3ccc(Cl)cc3)n2-c2ccccc2)cc1",
    "class": "f"
  },
  {
    "smi": "Fc1cc(F)cc(NNC(=S)c2ccccc2)c1",
    "class": "t"
  },
  {
    "smi": "Cc1cc(C)cc(NC2=C(Cl)C(=O)c3nc(C)ccc3C2=O)c1",
    "class": "t"
  },
  {
    "smi": "NCCNC(=O)c1cccc(COc2ccccc2NC(=O)c2cc(Cl)c(Cl)[nH]2)c1",
    "class": "f"
  },
  {
    "smi": "Cc1ccc2c(n1)C(=O)C(Cl)=C(Nc1ccccc1C(=O)OC(C)(C)C)C2=O",
    "class": "t"
  },
  {
    "smi": "COc1cccc(N2CCN(C3=C(Cl)C(=O)c4ncccc4C3=O)CC2)c1",
    "class": "t"
  },
  {
    "smi": "C/C(=N\\NC(=O)/C=C/CC(=O)O)c1nnn(-c2ccc([N+](=O)[O-])cc2)c1C",
    "class": "f"
  },
  {
    "smi": "C=C(C)[C@@H]1CC[C@]2(COCCCNCCCN)CC[C@]3(C)[C@H](CC[C@@H]4[C@@]5(C)CC[C@H](O)C(C)(C)[C@@H]5CC[C@]43C)[C@@H]12",
    "class": "t"
  }
]

Okay, next one:
Answer whether the compound `Cc1ccc(/C(N)=N/C(N)=N/c2nc3ccccc3s2)cc1` has growth strictly less than 70%
f

###

Test system: CCRF-CEM leukemia
assay-summary: NCI-60 one-dose screen, 48 h (100 = growth as untreated, 0 = no growth, -100 = all killed)
run-parameters: 10 µM unless noted
This is part of a sample that, as a whole, favours compounds with a hit. Of some 83,000 tested, about 20% had one in any assay.
Decide using growth alone. Strictly below 30%: true (1). Equal to or above 30%: false (0).

Answered cases to consult:
[
  {
    "molecule": "CC(=C(c1ccc(OCCN(C)C)cc1)c1ccc(OCCN(C)C)cc1)c1ccc(Cl)cc1",
    "class": "true (1)"
  },
  {
    "molecule": "C#Cc1cc(C(=O)Nc2ccc(CNCCN3CCOCC3)c(C(F)(F)F)c2)ccc1C",
    "class": "false (0)"
  },
  {
    "molecule": "COc1cc(-c2nc(-c3ccccc3)[nH]c2-c2ccnc(NCCCNS(=O)(=O)c3cccc(F)c3)n2)ccc1F",
    "class": "false (0)"
  },
  {
    "molecule": "COc1ccc(/C=N/NC(=O)c2c(N)nn(C)c2Nc2ccccc2)cc1",
    "class": "false (0)"
  },
  {
    "molecule": "Clc1ccc(CSc2nnc(-c3ccc(Cl)cc3)n2-c2ccccc2)cc1",
    "class": "false (0)"
  }
]

hey, is growth for `COc1cc(C(C)=C(c2ccc(OCCN(C)C)cc2)c2ccc(OCCN(C)C)cc2)ccc1F` lower than 30% or not?
false (0)

State whether 30% exceeds growth recorded for `Cc1ccccc1Nc1nc(SC(C)C)nc(-c2ccccc2)c1C#N` .
false (0)

###

Tested on: KM12 colon
assay-summary: NCI-60 one-dose screen, 48 h
run-parameters: 10 µM unless noted
This is part of a sample that, as a whole, favours compounds with a hit. Of some 83,000 tested, about 20% had one in any assay. Activity calls are given as the source filed them. Rule for the calls: active = growth percent below 10; inactive = the rest.
# valid calls are active, inactive; nothing else

[
  {
    "molecule": "NS(=O)(=O)c1ccc(Nc2nc(Nc3ccccc3)nc(N3N=C(c4ccc(Cl)cc4)CC3c3ccc(Cl)cc3)n2)cc1 (stereo not given)",
    "assayed-target": "KM12 colon",
    "class": "active"
  },
  {
    "molecule": "CN1CCN(CCNc2nc(-c3cccc(NS(=O)(=O)c4cccc5c(N(C)C)cccc45)c3)cs2)CC1",
    "assayed-target": "KM12 colon",
    "class": "inactive"
  }
]

// param item: `O=C(CCCCCCNC(=O)C(O)(O)C(F)(F)F)Nc1ccc(Cl)cc1` ; yields the recorded call
inactive

Assay result, entry `C(=N\Nc1nc(N/N=C/c2ccc3c(c2)OCO3)nc(N2CCCCC2)n1)/c1ccc2c(c1)OCO2` — outcome?
inactive

Given `O=C1Nc2ccc(F)cc2/C1=C\C(=O)c1ccc(NS(=O)(=O)c2ccccc2)cc1` , state the outcome it received in this test.
inactive
